test system: BT-549; conditions: BT-549 (Breast Cancer), 48 hours, SRB
Kindly supply the reported TGI values for the records listed here.
Give your result in nM as a bare value.

Inquiry: For the compound shown here, CC1(C)C=Cc2c(ccc3c4c(n(O)c23)C(C)(C)C2CC35CCCN3C(=O)C2(NC5=O)C4SCC(NC(=O)CCC(N)C(=O)O)C(=O)NCC(=O)O)O1 (stereo not shown) , give the reported TGI.
Reply text: 2700

Inquiry: Also need [2H]On1c2c(c3ccc4c(c31)C=CC(C)(C)O4)C(OC([2H])([2H])[2H])[C@@]13NC(=O)C4(CCCN4C1=O)CC3C2(C)C (stereo partly shown) , thanks.
Reply text: 1990

Inquiry: Also need CN(C)c1cccc2c(S(=O)(=O)NCCCCCCCCCCOc3ccc4c(c3)[N+]([O-])=C3C4=C[C@@]45NC(=O)C6(CCCN6C4=O)CC5C3(C)C)cccc12 (stereo partly shown) , thanks.
Reply text: 6730

Inquiry: Also need Cc1cc(C)cc(-c2ccc3c(c2)[N+]([O-])=C2C3=C[C@@]34NC(=O)C5(CCCN5C3=O)CC4C2(C)C)c1 (stereo partly shown) , thanks.
Reply text: 379

* * *

system: HCC-2998; conditions: read-out: LC50; HCC-2998 (Colon Cancer), 48 hours, SRB
Property measured: CC50 (µM)
Give your result in µM as a bare value.

Inquiry: For the compound shown here, CN(C)c1cccc2c(S(=O)(=O)NCCCCCCCCCCOc3ccc4c(c3)[N+]([O-])=C3C4=C[C@@]45NC(=O)C6(CCCN6C4=O)CC5C3(C)C)cccc12 (some centres unmarked) , give the reported CC50.
Reply text: 5.49

Inquiry: Also need CC1(C)C=Cc2c(ccc3c4c(n(O)c23)C(C)(C)C2CC35CCCN3C(=O)C2(NC5=O)C4SCC(NC(=O)CCC(N)C(=O)O)C(=O)NCC(=O)O)O1 (centres unmarked) , thanks.
Reply text: 3.02

* * *

tested on: MALME-3M; conditions: read-out: LC50; MALME-3M (Melanoma), 48 hours, SRB
Property measured: CC50
Answers without a unit are incomplete; give the number and then its unit.

Inquiry: For the compound shown here, CC1(C)C=Cc2c(ccc3c4c(n(O)c23)C(C)(C)C2CC35CCCN3C(=O)C2(NC5=O)C4SCC(NC(=O)CCC(N)C(=O)O)C(=O)NCC(=O)O)O1 (stereo not shown) , give the reported CC50.
Reply text: 25.1 µM

* * *

test system: UACC62; conditions: read-out: LC50; UACC62 (Melanoma), 48 hours, SRB
Kindly supply the reported CC50 values for the records listed here.
Give your result in µM as a bare value.

Inquiry: For the compound shown here, CN(C)c1cccc2c(S(=O)(=O)NCCCCCCCCCCOc3ccc4c(c3)[N+]([O-])=C3C4=C[C@@]45NC(=O)C6(CCCN6C4=O)CC5C3(C)C)cccc12 (some centres unmarked) , give the reported CC50.
Reply text: 4.88

Inquiry: Also need CC1(C)C=Cc2c(ccc3c4c(n(O)c23)C(C)(C)C2CC35CCCN3C(=O)C2(NC5=O)C4SCC(NC(=O)CCC(N)C(=O)O)C(=O)NCC(=O)O)O1 (centres unmarked) , thanks.
Reply text: 4.56

* * *

tested on: A549/ATCC; settings: A549/ATCC (Non-Small Cell Lung Cancer), 48 hours, SRB
Property measured: TGI (µM)
Give your result in µM as a bare value.

Inquiry: Record CC1(C)C=Cc2c(ccc3c4c(n(O)c23)C(C)(C)C2CC35CCCN3C(=O)C2(NC5=O)C4SCC(NC(=O)CCC(N)C(=O)O)C(=O)NCC(=O)O)O1 (stereo not shown) : what is its TGI with A549/ATCC?
Reply text: 3.94

Inquiry: Also need [2H]On1c2c(c3ccc4c(c31)C=CC(C)(C)O4)C(OC([2H])([2H])[2H])[C@@]13NC(=O)C4(CCCN4C1=O)CC3C2(C)C (stereo partly shown) , thanks.
Reply text: 2.99

Inquiry: Also need CN(C)c1cccc2c(S(=O)(=O)NCCCCCCCCCCOc3ccc4c(c3)[N+]([O-])=C3C4=C[C@@]45NC(=O)C6(CCCN6C4=O)CC5C3(C)C)cccc12 (stereo partly shown) , thanks.
Reply text: 5.37

Inquiry: Also need Cc1cc(C)cc(-c2ccc3c(c2)[N+]([O-])=C2C3=C[C@@]34NC(=O)C5(CCCN5C3=O)CC4C2(C)C)c1 (stereo partly shown) , thanks.
Reply text: 0.834

* * *

tested on: COLO 205; details: read-out: LC50; COLO 205 (Colon Cancer), 48 hours, SRB
Kindly supply the reported CC50 values for the records listed here.
Give your result in µM as a bare value.

Inquiry: For the molecule shown here, CN(C)c1cccc2c(S(=O)(=O)NCCCCCCCCCCOc3ccc4c(c3)[N+]([O-])=C3C4=C[C@@]45NC(=O)C6(CCCN6C4=O)CC5C3(C)C)cccc12 (some centres unmarked) , give the reported CC50.
Reply text: 3.86

Inquiry: Also need CC1(C)C=Cc2c(ccc3c4c(n(O)c23)C(C)(C)C2CC35CCCN3C(=O)C2(NC5=O)C4SCC(NC(=O)CCC(N)C(=O)O)C(=O)NCC(=O)O)O1 (centres unmarked) , thanks.
Reply text: 3.51

* * *

tested on: NCI/ADR-RES; settings: read-out: LC50; NCI/ADR-RES (Breast Cancer), 48 hours, SRB
Property measured: CC50 (µM)
Give your result in µM as a bare value.

Inquiry: For the compound shown here, CC1(C)C=Cc2c(ccc3c4c(n(O)c23)C(C)(C)C2CC35CCCN3C(=O)C2(NC5=O)C4SCC(NC(=O)CCC(N)C(=O)O)C(=O)NCC(=O)O)O1 (centres unmarked) , give the reported CC50.
Reply text: 44.7

* * *

Kindly supply the reported TGI values for the records listed here.
tested on: OVCAR-8; settings: OVCAR-8 (Ovarian Cancer), 48 hours, SRB
Give your result in µM as a bare value.

Inquiry: For the compound shown here, CN(C)c1cccc2c(S(=O)(=O)NCCCCCCCCCCOc3ccc4c(c3)[N+]([O-])=C3C4=C[C@@]45NC(=O)C6(CCCN6C4=O)CC5C3(C)C)cccc12 (stereo partly shown) [Dansyl Analogue] , give the reported TGI.
Reply text: 11

Inquiry: Also need [2H]On1c2c(c3ccc4c(c31)C=CC(C)(C)O4)C(OC([2H])([2H])[2H])[C@@]13NC(=O)C4(CCCN4C1=O)CC3C2(C)C (stereo partly shown) [Deuterated Methanol Adduct] , thanks.
Reply text: 2.17

Inquiry: Also need CC1(C)C=Cc2c(ccc3c4c(n(O)c23)C(C)(C)C2CC35CCCN3C(=O)C2(NC5=O)C4SCC(NC(=O)CCC(N)C(=O)O)C(=O)NCC(=O)O)O1 (stereo not shown) [Glutathione Adduct] , thanks.
Reply text: 6.38

Inquiry: Also need Cc1cc(C)cc(-c2ccc3c(c2)[N+]([O-])=C2C3=C[C@@]34NC(=O)C5(CCCN5C3=O)CC4C2(C)C)c1 (stereo partly shown) [Biphenyl Analogue] , thanks.
Reply text: 1.03

* * *

tested on: UACC-257; settings: UACC-257 (Melanoma), 48 hours, SRB
Property measured: TGI (nM)
Give your result in nM as a bare value.

Inquiry: For the compound shown here, CC1(C)C=Cc2c(ccc3c4c(n(O)c23)C(C)(C)C2CC35CCCN3C(=O)C2(NC5=O)C4SCC(NC(=O)CCC(N)C(=O)O)C(=O)NCC(=O)O)O1 (stereo not shown) , give the reported TGI.
Reply text: 5430

Inquiry: Also need [2H]On1c2c(c3ccc4c(c31)C=CC(C)(C)O4)C(OC([2H])([2H])[2H])[C@@]13NC(=O)C4(CCCN4C1=O)CC3C2(C)C (stereo partly shown) , thanks.
Reply text: 1890

Inquiry: Also need CN(C)c1cccc2c(S(=O)(=O)NCCCCCCCCCCOc3ccc4c(c3)[N+]([O-])=C3C4=C[C@@]45NC(=O)C6(CCCN6C4=O)CC5C3(C)C)cccc12 (stereo partly shown) , thanks.
Reply text: 2810

Inquiry: Also need Cc1cc(C)cc(-c2ccc3c(c2)[N+]([O-])=C2C3=C[C@@]34NC(=O)C5(CCCN5C3=O)CC4C2(C)C)c1 (stereo partly shown) , thanks.
Reply text: 1360

* * *

system: LOX IMVI; details: read-out: LC50; LOX IMVI (Melanoma), 48 hours, SRB
Property measured: CC50
Answers without a unit are incomplete; give the number and then its unit.

Inquiry: For the molecule shown here, CN(C)c1cccc2c(S(=O)(=O)NCCCCCCCCCCOc3ccc4c(c3)[N+]([O-])=C3C4=C[C@@]45NC(=O)C6(CCCN6C4=O)CC5C3(C)C)cccc12 (stereo partly shown) [Dansyl Analogue] , give the reported CC50.
Reply text: 579 nM

* * *

system: HL-60(TB); conditions: read-out: LC50; HL-60(TB) (Leukemia), 48 hours, SRB
Property measured: CC50

Inquiry: For the molecule shown here, CN(C)c1cccc2c(S(=O)(=O)NCCCCCCCCCCOc3ccc4c(c3)[N+]([O-])=C3C4=C[C@@]45NC(=O)C6(CCCN6C4=O)CC5C3(C)C)cccc12 (stereo partly shown) , give the reported CC50.
Reply text: > 100 µM
